testedTarget: RORγ (Homo sapiens, UniProt P51449)
Sequence (P51449 269-508 limits assumed): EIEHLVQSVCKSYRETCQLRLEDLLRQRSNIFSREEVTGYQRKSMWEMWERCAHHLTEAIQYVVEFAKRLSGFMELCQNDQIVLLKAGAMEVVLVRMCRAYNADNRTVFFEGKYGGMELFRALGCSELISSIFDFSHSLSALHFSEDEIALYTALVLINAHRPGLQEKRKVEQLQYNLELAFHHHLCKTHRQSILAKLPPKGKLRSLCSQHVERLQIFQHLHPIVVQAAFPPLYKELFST
assayExplanation: RORγ Reporter Gene Assay (RGA), luciferase transactivation in transiently transfected HEK 293 cells
experimentalContext: HEK 293 cells cotransfected with pGL4.3 luc2P/GAL4UAS and pBIND Gal4DBD hRORC LBD; 20-24 h incubation
measure: pIC50
Reminder that pIC50 means the negative base-10 logarithm of the concentration expressed in mol/L.

Solved entries (count: 2):
CC[C@H](C)n1c(=O)c(NCc2ccc(S(=O)(=O)CC)cn2)nc2c(C)nc(-c3c(C)ncnc3C3CC3)nc21 [Example 60] ... 7.10
CC[C@@H](C)n1c(=O)c(NCc2ccc(S(=N)(=O)CC)cc2)nc2c(C)nc(-c3c(OC)ncnc3C3CC3)nc21 (single isomer, unassigned) [Example 29a] ... 6.63

Now examine the next entry.
pIC50 for COc1ncnc(C2CC2)c1-c1nc(C)c2nc(NCc3ccc(S(C)(=O)=O)cn3)c(=O)n([C@@H](C)C3CC3)c2n1 [Example 5] is 7.14
